- TESTED_SYSTEM: T1, Pellino 1 FHA (PELI1 residues 13-273) (human, UniProt Q96FA3 13-273)
- T1 construct: Cloned into pGEX-6P1; same preparation for ITC and crystallography by the methods; also called PELI1 (13–273); N-terminal PELI1 fragment; source: E. coli BL21 (DE3), purified (Glutathione Sepharose, 3C cleavage, gel filtration); not shown: GST, N-terminal, cleaved
- T1 sequence (looked up): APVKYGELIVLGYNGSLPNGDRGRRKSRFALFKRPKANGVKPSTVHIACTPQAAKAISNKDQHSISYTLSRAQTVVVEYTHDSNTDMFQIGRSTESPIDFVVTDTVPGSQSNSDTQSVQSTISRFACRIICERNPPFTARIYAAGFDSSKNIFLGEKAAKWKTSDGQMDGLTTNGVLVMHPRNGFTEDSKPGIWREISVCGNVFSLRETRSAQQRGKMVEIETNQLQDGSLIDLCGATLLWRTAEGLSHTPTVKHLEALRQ
- ASSAY_SUMMARY: ITC; peptide in the syringe (typically 160 μM), protein in the cell (16 μM); 25 mM HEPES pH 7.0, 200 mM NaCl, 1 mM TCEP; single-site binding model
- CONDITION_SUMMARY: both partners purified
Square brackets hold non-standard residues; d marks the D form. pT = C[C@@H](OP(=O)(O)O)[C@H](N)C(=O)O
Below, each entry is listed with its recorded Kd.
Numeric answer only, unit µM assumed.

Solved entries (count: 4):
1) Ac-AYDLQA[pT]QCFA-NH2 (SMILES CC(=O)N[C@@H](C)C(=O)N[C@@H](Cc1ccc(O)cc1)C(=O)N[C@@H](CC(=O)O)C(=O)N[C@@H](CC(C)C)C(=O)N[C@@H](CCC(N)=O)C(=O)N[C@@H](C)C(=O)N[C@H](C(=O)N[C@@H](CCC(N)=O)C(=O)N[C@@H](CS)C(=O)N[C@@H](Cc1ccccc1)C(=O)N[C@@H](C)C(N)=O)[C@@H](C)OP(=O)(O)O, human MDC1, stretch around T699 with alanine at pT+4; source: synthetic peptide) [MDC1-pT699 phosphopeptide for ITC (AYDLQApTQCFA)]    2.01
2) Ac-AYEDSE[pT]QPFD-NH2 (SMILES CC(=O)N[C@@H](C)C(=O)N[C@@H](Cc1ccc(O)cc1)C(=O)N[C@@H](CCC(=O)O)C(=O)N[C@@H](CC(=O)O)C(=O)N[C@@H](CO)C(=O)N[C@@H](CCC(=O)O)C(=O)N[C@H](C(=O)N[C@@H](CCC(N)=O)C(=O)N1CCC[C@H]1C(=O)N[C@@H](Cc1ccccc1)C(=O)N[C@@H](CC(=O)O)C(N)=O)[C@@H](C)OP(=O)(O)O, two N-terminal residues that are not the MDC1 residues at this place; human MDC1, stretch around T765; Natural stretch with two added N-terminal residues (AY); The crystallisation methods name only 'the MDC1-pT765 phosphopeptide'; also called MDC1-pT765 (Site 4) phosphopeptide; MDC1 p765 peptide; source: synthetic peptide) [MDC1-pT765 phosphopeptide for ITC and crystallisation (AYEDSEpTQPFD)]    0.23
3) Ac-AYEDEP[pT]QAFA-NH2 (SMILES CC(=O)N[C@@H](C)C(=O)N[C@@H](Cc1ccc(O)cc1)C(=O)N[C@@H](CCC(=O)O)C(=O)N[C@@H](CC(=O)O)C(=O)N[C@@H](CCC(=O)O)C(=O)N1CCC[C@H]1C(=O)N[C@H](C(=O)N[C@@H](CCC(N)=O)C(=O)N[C@@H](C)C(=O)N[C@@H](Cc1ccccc1)C(=O)N[C@@H](C)C(N)=O)[C@@H](C)OP(=O)(O)O) [MDC1-pT719 phosphopeptide for ITC (AYEDEPpTQAFA)]    1.14
4) Ac-AYEVLA[pT]QPFC-NH2 (SMILES CC(=O)N[C@@H](C)C(=O)N[C@@H](Cc1ccc(O)cc1)C(=O)N[C@@H](CCC(=O)O)C(=O)N[C@H](C(=O)N[C@@H](CC(C)C)C(=O)N[C@@H](C)C(=O)N[C@H](C(=O)N[C@@H](CCC(N)=O)C(=O)N1CCC[C@H]1C(=O)N[C@@H](Cc1ccccc1)C(=O)N[C@@H](CS)C(N)=O)[C@@H](C)OP(=O)(O)O)C(C)C, two N-terminal residues that are not the MDC1 residues at this place; human MDC1, stretch around T752; Natural stretch with two added N-terminal residues (AY); source: synthetic peptide) [MDC1-pT752 phosphopeptide for ITC (AYEVLApTQPFC)]    1.14

Proceeding to the next binder to report its Kd.
[ask] Specify Kd for Ac-AYSSAS[pT]FLYP-NH2 (SMILES CC(=O)N[C@@H](C)C(=O)N[C@@H](Cc1ccc(O)cc1)C(=O)N[C@@H](CO)C(=O)N[C@@H](CO)C(=O)N[C@@H](C)C(=O)N[C@@H](CO)C(=O)N[C@H](C(=O)N[C@@H](Cc1ccccc1)C(=O)N[C@@H](CC(C)C)C(=O)N[C@@H](Cc1ccc(O)cc1)C(=O)N1CCC[C@H]1C(N)=O)[C@@H](C)OP(=O)(O)O, two N-terminal residues as in the other ITC peptides; IRAK1, stretch around T141 with tyrosine at pT+3; also called IRAK-pT141(+3Y); source: synthetic peptide) [IRAK1-pT141(+3Y) phosphopeptide (AYSSASpTFLYP)] and stop.
[reply] 0.42
